assayInfo: logP by HPLC (EEC Directive 79/831 Annex V. A8, gradient method)
Assay type: physicochemical
conditionLabel: acetonitrile/0.1% aqueous phosphoric acid
Values of logP greater than or equal to 4 map to condition met; values below map to condition not met.

Answered examples (8):
| molecule | discreteLabel |
| --- | --- |
| Cc1nc2nc(Cl)c(-c3ncncc3F)c(NC[Si](C)(C)C)n2n1 [Example 27] | condition not met |
| C[Si](C)(C)CNc1c(-c2ncncc2Cl)c(Cl)nc2ncnn12 [Example 24] | condition not met |
| C[Si](C)(C)CNc1c(-c2c(F)cccc2Cl)c(Cl)nc2nc(C3CC3)nn12 [Example 12] | condition met |
| CC(Nc1c(-c2ccccc2Cl)c(Cl)nc2ncnn12)[Si](C)(C)C (stereo not shown) [Example 7] | condition not met |
| C[Si](C)(C)CNc1c(-c2ccccc2Cl)c(Cl)nc2nc(C3CC3)nn12 [Example 20] | condition met |
| CC(C)c1nc2nc(Cl)c(-c3ncc(C(F)(F)F)cc3Cl)c(NC[Si](C)(C)C)n2n1 [Example 8] | condition met |
| CC(Nc1c(-c2ncncc2F)c(Cl)nc2ncnn12)[Si](C)(C)C (stereo not shown) [Example 42] | condition not met |
| CC(Nc1c(-c2ccccc2Cl)c(Cl)nc2nc(C3CC3)nn12)[Si](C)(C)C (stereo not shown) [Example 21] | condition met |

Turning now to a further molecule:
### Prompt Test whether the molecule CC(Nc1c(-c2c(F)cccc2Cl)c(Cl)nc2ncnn12)[Si](C)(C)C (stereo not shown) [Example 5] records logP of 4 or higher.
### Response condition not met

====

assayInfo: logP by HPLC (EEC Directive 79/831 Annex V. A8, gradient method)
Format: physicochemical
conditionLabel: acetonitrile/0.1% aqueous phosphoric acid
Values of logP greater than or equal to 3 map to Criterion met; values below map to Criterion not met.

Answered examples (2):
| molecule | discreteLabel |
| --- | --- |
| CC(Nc1c(-c2ncncc2Cl)c(Cl)nc2ncnn12)[Si](C)(C)C (stereo not drawn) | Criterion not met |
| CC(Nc1c(-c2c(F)cccc2Cl)c(Cl)nc2nc(C3CC3)nn12)[Si](C)(C)C (stereo not drawn) | Criterion met |

### Prompt Test whether the molecule CC(C)c1nc2nc(Cl)c(-c3ncncc3F)c(NC(C)[Si](C)(C)C)n2n1 (stereo not drawn) records logP of 3 or higher.
### Response Criterion met

### Prompt Test whether the molecule `C[Si](C)(C)CNc1c(-c2ncncc2F)c(Cl)nc2ncnn12` records logP of 3 or higher.
### Response Criterion not met

### Prompt Test whether the molecule Cc1nc2nc(Cl)c(-c3ncncc3F)c(NC(C)[Si](C)(C)C)n2n1 (stereo not drawn) records logP of 3 or higher.
### Response Criterion not met

### Prompt Test whether the molecule `C[Si](C)(C)CNc1c(-c2c(F)cccc2Cl)c(Cl)nc2ncnn12` records logP of 3 or higher.
### Response Criterion met

====

assayInfo: logP by HPLC (EEC Directive 79/831 Annex V. A8, gradient method)
Assay type: physicochemical
conditionLabel: acetonitrile/0.1% aqueous phosphoric acid
assayMetric: chromatographic logP
# print the numeric value only

Examples with their reported chromatographic logP follow.
| compound | valueMeasured |
| --- | --- |
| CC(C)c1nc2nc(Cl)c(-c3cc(F)ccc3F)c(NC(C)[Si](C)(C)C)n2n1 (centres unmarked) | 4.58 |
| Cc1nc2nc(Cl)c(-c3cc(F)ccc3F)c(NC[Si](C)(C)C)n2n1 | 3.4 |
| CC(C)c1nc2nc(Cl)c(-c3cc(F)ccc3F)c(NC[Si](C)(C)C)n2n1 | 4.21 |

### Prompt Using the record for `C[Si](C)(C)CNc1c(-c2c(F)cc(F)cc2F)c(Cl)nc2ncnn12` , report its chromatographic logP.
### Response 3.39

### Prompt Using the record for CC(Nc1c(-c2cc(F)ccc2F)c(Cl)nc2ncnn12)[Si](C)(C)C (centres unmarked) , report its chromatographic logP.
### Response 3.57

### Prompt Using the record for CCC(C)c1c(Cl)nc2ncnn2c1NC[Si](C)(C)C (centres unmarked) , report its chromatographic logP.
### Response 3.34

### Prompt Using the record for CCC(C)c1c(Cl)nc2ncnn2c1Cl (centres unmarked) , report its chromatographic logP.
### Response 2.4

### Prompt Using the record for CCC(C)c1c(O)n2ncnc2[nH]c1=O (centres unmarked) , report its chromatographic logP.
### Response 0.7

====

assayInfo: logP by HPLC (EEC Directive 79/831 Annex V. A8, gradient method)
Assay type: physicochemical
conditionLabel: acetonitrile/0.1% aqueous phosphoric acid
compounds and their reported logP
# print the numeric value only

### Prompt Using the record for C[Si](C)(C)CNc1c(-c2ncncc2F)c(Cl)nc2nc(C3CC3)nn12 [Example 22] , report its logP.
### Response 3.02

### Prompt Using the record for CC(Nc1c(-c2ncncc2F)c(Cl)nc2nc(C3CC3)nn12)[Si](C)(C)C (stereo not drawn) [Example 19] , report its logP.
### Response 2.99

### Prompt Using the record for CC(Nc1c(-c2ncccc2C(F)(F)F)c(Cl)nc2ncnn12)[Si](C)(C)C (stereo not drawn) [Example 10] , report its logP.
### Response 3.06

====

assayInfo: logP by HPLC (EEC Directive 79/831 Annex V. A8, gradient method)
Type: physicochemical
conditionLabel: acetonitrile/0.1% aqueous phosphoric acid
assayMetric: chromatographic logP
# print the numeric value only

| molecule | chromatographic logP |
| --- | --- |
| C[Si](C)(C)CNc1c(-c2cc(F)ccc2F)c(Cl)nc2ncnn12 | 3.26 |
| C[Si](C)(C)CNc1c(-c2ccc(F)cc2Cl)c(Cl)nc2ncnn12 | 3.61 |
| CC(Nc1c(-c2cc(F)ccc2F)c(Cl)nc2nc(C3CC3)nn12)[Si](C)(C)C (stereo not drawn) | 4.35 |
| CC(Nc1c(-c2c(F)cc(F)cc2F)c(Cl)nc2ncnn12)[Si](C)(C)C (stereo not drawn) | 3.71 |
| C[Si](C)(C)CNc1c(-c2cc(F)ccc2F)c(Cl)nc2nc(C3CC3)nn12 | 3.99 |

// switching to the query molecule
### Prompt Using the record for Cc1nc2nc(Cl)c(-c3cc(F)ccc3F)c(NC(C)[Si](C)(C)C)n2n1 (stereo not drawn) , report its chromatographic logP.
### Response 3.73
